Give EC50 for every item shown.
# System Under Test: GPR139 (Homo sapiens, UniProt Q6DWJ6)
# Sequence (Q6DWJ6 whole entry): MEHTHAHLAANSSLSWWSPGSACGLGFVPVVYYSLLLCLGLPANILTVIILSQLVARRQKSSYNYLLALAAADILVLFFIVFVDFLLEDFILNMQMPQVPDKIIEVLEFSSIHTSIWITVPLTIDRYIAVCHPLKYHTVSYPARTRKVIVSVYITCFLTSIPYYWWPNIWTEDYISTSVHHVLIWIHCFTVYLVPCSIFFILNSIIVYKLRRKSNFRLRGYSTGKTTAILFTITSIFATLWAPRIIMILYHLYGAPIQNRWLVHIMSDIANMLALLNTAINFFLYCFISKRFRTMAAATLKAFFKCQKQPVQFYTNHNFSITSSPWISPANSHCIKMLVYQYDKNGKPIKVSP
# Measurement Protocol: GPR139 Agonist titration / agonist counterscreen assay (calcium detection, HEK-GPR139 cells)
# Type: cell-based
# Set-up: expressed in transfected cells; host or cells: HEK Aequorin cells, Maxcyte transient transfection
# Applied Conditions: GPR139 Agonist Activity; values printed in E-notation without unit; read-out: EC50
Answer in nM, number only, no unit symbol.

Q) // map COc1ccc(CCNC(=O)c2cccc(-c3ccc(OC)nc3)c2)cc1 to recorded EC50 (system: GPR139 (Homo sapiens, UniProt Q6DWJ6))
A) 93.2

Q) And what about the molecule Cc1ccc(SCC(=O)Nc2nnc(-c3ccco3)o2)cc1 ?
A) 119

Q) Next molecule up: CN(Cc1cccs1)C(=O)CN1C(=O)NC(C)(c2ccc3c(c2)OCO3)C1=O (centres unmarked)
A) 2.9

Q) Same question, COc1cc(-c2nnc(COc3ccc(Cl)cc3C)o2)cc(OC)c1OC this time
A) 19.4

Q) O=C(CCC(=O)c1ccco1)NNC(=O)CN1CCCc2ccccc21 , same question.
A) 34.7

Q) Thanks! And Cc1ccc(NC(=O)Cn2ncc3c2-c2ccccc2OC3)cc1F ?
A) 61.5

Q) And what about the molecule O=C(Cc1cccc2ccccc12)Nc1nnc(-c2cccs2)o1 ?
A) 138

Q) Would you kindly repeat that for CCC1(c2ccc(Cl)cc2)NC(=O)N(CC(=O)N2CC3(C)CC2CC(C)(C)C3)C1=O (centres unmarked) ?
A) 54.3

Q) What do we get for CC1(c2ccc3c(c2)OCCO3)NC(=O)C(CC(=O)NCC2CCCCC2)C1=O (centres unmarked) ?
A) 103

Q) Queued: COc1ccc(CCNC(=O)c2cnc(N3CCCC3CO)s2)cc1 (centres unmarked)
A) 11.5

Q) Same read-out for COc1cccc(C(=O)NNC(=O)C(C)Oc2ccc(Cl)cc2Cl)c1 (centres unmarked) ?
A) 4.9

Q) And then COc1ccc(CCC(=O)Nc2ccc(/C(N)=N/O)cc2)cc1 , what is it?
A) 179

Q) Now try CC1(c2ccc3ccccc3c2)NC(=O)N(CC(=O)Nc2ccccc2Cl)C1=O (centres unmarked) .
A) 40.5

Q) Repeat for the following molecule: O=C(CSc1ccc(Cl)cc1)Nc1nnc(-c2ccco2)o1
A) 71.8

Q) Next: Cc1c(C(=O)NC(C)(C)CO)cnn1-c1ncc2c(n1)-c1ccccc1CC2
A) 15.7

Q) Record: CC(C(=O)NCCc1ccc(Cl)cc1)n1ncn2cccc2c1=O (centres unmarked)
A) 1.3

Q) Now try CC(C)C1CC(=O)[C@@H]2C[C@@H](CC2C(=O)CC2CCOc3ccccc3C2)C2C=CC(=C2)CCC(=O)[C@@H](Cc2ccccc2)NC1=O (some centres unmarked) .
A) 13.8

* * *

Provide the recorded Lipophilic Efficiency (logP) for the entries that follow.
# System Under Test: GPR139 (Homo sapiens, UniProt Q6DWJ6)
# Measurement Protocol: GPR139 Agonist titration / agonist counterscreen assay (calcium detection, HEK-GPR139 cells)
# Type: cell-based
# Parameters: expressed in transfected cells; host or cells: HEK Aequorin cells, Maxcyte transient transfection
# Applied Conditions: GPR139 Agonist Activity
# Procedure: GPR activity was assessed using a calcium detection assay. […] Negative control samples were treated with DMSO. […] Intracellular calcium was measured using Calcium 5.
Write no unit; give the number alone.

Q) // Lipophilic Efficiency (logP) lookup, key: Cc1nn(-c2ccccc2)nc1C(=O)NNC(=O)CSCc1cccc2ccccc12
A) 2.57

Q) Would you mind doing COC(=O)c1ccc(CNC(=O)Nc2ccc(-c3cn[nH]c3)cc2)cc1.O=C(O)C(F)(F)F as well?
A) 2.93

Q) Could you do the same for COc1cc(C(=O)NNC(=O)CSc2ccc(C)cc2)cc(OC)c1C , please?
A) 3.40

Q) Same question, O=C(CSCc1cccc2ccccc12)Nc1c[nH]c(=O)[nH]c1=O this time
A) 4.76

Q) Same for CC(C(=O)NCCn1nnn(-c2ccccc2)c1=O)n1nc2ccccc2n1 (centres unmarked)
A) 3.07

Q) Lookup COC(=O)C(CCSC)NC(=O)C1CC(Cc2ccc3c(c2)OCO3)=NO1 (centres unmarked)
A) 4.01

Q) Another: O=C(CCc1nc2ccccc2s1)NNC(=O)CSc1ccccc1F
A) 3.67

Q) Same read-out for COc1ccccc1CN1CCNC(=O)C1CC(=O)NCCCN1CCc2ccccc21 (centres unmarked) ?
A) 4.32

Q) Try the compound Cc1ccccc1SCC(=O)NNC(=O)C1CCCCC1
A) 3.30

Q) Now the compound CC(Oc1ccccc1)C(=O)NCCn1ccc2ccccc21 (centres unmarked)
A) 2.59

Q) What do you get for COc1ccc(CCN2CC3=C(C2=O)C(c2ccc(F)c(F)c2)NC(=O)N3)cc1 (centres unmarked) ?
A) 4.62

Q) Same question, CCn1c2ccccc2c2cc(C3C(C#N)=C(N)Oc4n[nH]c(C)c43)ccc21 (centres unmarked) this time
A) 2.16

Q) Now consider CCCC(=O)C1CCC(C(=O)CC2CCC(c3ccc(C(C)O)cc3)C2=O)CC1 (centres unmarked) and answer again.
A) 4.98

Q) Likewise for Cc1c(Cl)c(C(F)(F)F)nn1CC(=O)NCc1ccc(Cl)cc1 ?
A) 1.94

Q) Another compound to look at: O=C(COc1ccc2ccccc2c1)NNC(=O)c1cccc([N+](=O)[O-])c1
A) 3.10

Q) And for O=C(CN1C(=O)OC(O)(c2ccc(Cl)cc2Cl)C1=O)Nc1ccccc1Cl (centres unmarked) ?
A) 2.49

Q) Next record, please: Cc1cc(C)c2c(cnn2CC(=O)N2CCc3ccccc3C2)c1
A) 2.91

Q) Would you mind doing COC(=O)c1ccc(NC(=O)CNC(=O)C2CCCCC2)c(C)c1 as well?
A) 3.52

Q) Follow-up item: O=C(C1CC1)N1CCc2cc(S(=O)(=O)NCC3COc4ccccc4O3)ccc21 (centres unmarked)
A) 3.90

Q) // query: CCCCCCC(=O)NNC(=O)c1c(O)c2ccccc2n(CCC)c1=O
A) 3.13
